System: Pseudomonas aeruginosa 104
assay notes: minimal inhibitory concentration, agar dilution method
Format: cell-based
measurement kind: MIC (µg/mL)

I: CCOC(=O)Oc1ccc([C@@H](NC(=O)c2cnc3cc([N+](=O)[O-])ccc3c2O)C(=O)N[C@@H]2C(=O)N3[C@@H]2SC(C)(C)[C@@H]3C(=O)O)cc1 [Example 20]
II: CCOC(=O)Oc1ccc([C@@H](NC(=O)c2cnc3cccnc3c2S)C(=O)N[C@@H]2C(=O)N3[C@@H]2SC(C)(C)[C@@H]3C(=O)O)cc1 [Example 39]
III: CC1(C)S[C@@H]2[C@H](NC(=O)[C@H](NC(=O)c3cc4ccccc4nc3O)c3ccc(O)cc3)C(=O)N2[C@H]1C(=O)O [Example 27]
# descending MIC order for the listed compounds Answer with the labels in sequence, matching the requested order. I, III, II
(I: 12.5 µg/mL, III: 6.25 µg/mL, II: 1.56 µg/mL)
